Tested on: 425362-245-T-J1 tumor spheroids, viability % test/control
Test: Anticancer human tumor 425362-245-T-J1 patient-derived melanoma cell line growth inhibition
Conditions: second compound 0.03 µM; first compound 3.16 µM; hits give low values; spheroids with HUVEC and MSC
Description: Multicellular complex tumor spheroid response to DNA repair inhibitors in combination with DNA-damaging drugs This study explores the anticancer activities of DNA-damaging drugs and inhibitors of DNA damage repair, both as single agents and in combinations. […] Twenty-six patient-derived or established malignant cell lines were evaluated representing sarcoma, melanoma, small cell lung cancer (SCLC), non-small cell lung cancer (NSCLC), as well as bladder, ovarian and pancreatic cancers. […]
Please respond with reported viability, T/C for every item in the list.
Give bare numbers, in %.

Known viability, T/C results, listed for orientation:
1. [2H]c1nc(C)nc([2H])c1-c1cc(NC[C@@H](C)c2cccc3c(C(=O)NC)ccnc23)ncn1 + CC[C@@]1(O)C(=O)OCc2c1cc1n(c2=O)Cc2cc3c(CN(C)C)c(O)ccc3nc2-1 ... 20.5
2. CC(C)n1c(=O)n(C)c2cnc3cc(F)c(-c4ccc(OCCCN5CCCCC5)nc4)cc3c21 + CC[C@@]1(O)C(=O)OCc2c1cc1n(c2=O)Cc2cc3c(CN(C)C)c(O)ccc3nc2-1 ... 5.65
3. CC1COCCN1c1cc(-c2ccnn2C)c2ccnc(-c3ccn[nH]3)c2n1 (stereo unspecified) + CC[C@@]1(O)C(=O)OCc2c1cc1n(c2=O)Cc2cc3c(CN(C)C)c(O)ccc3nc2-1 ... 5.76

// input: 2 compounds below; output: viability, T/C for each
1. Cc1cc(C)c(CNC(=O)c2cc(-c3ccc(CN4CCOCC4)cc3)cc3c2cnn3C2CCCC2)c(=O)[nH]1 + CC[C@@]1(O)C(=O)OCc2c1cc1n(c2=O)Cc2cc3c(CN(C)C)c(O)ccc3nc2-1
2. COc1cc(C)[nH]c(=O)c1CN1CCc2c(Cl)cc(C(OC)C3COC3)c(Cl)c2C1=O (stereo unspecified) + CC[C@@]1(O)C(=O)OCc2c1cc1n(c2=O)Cc2cc3c(CN(C)C)c(O)ccc3nc2-1

11.7
29.9

# COc1ccc([C@@H](O)c2cc(-c3ncnc4cc(N5CCOCC5)ccc34)c(F)cc2Cl)nn1 + CC[C@@]1(O)C(=O)OCc2c1cc1n(c2=O)Cc2cc3c(CN(C)C)c(O)ccc3nc2-1 with 425362-245-T-J1 tumor spheroids, viability % test/control: viability, T/C is 15.1

----------
Tested on: 425362-245-T-J1 tumor spheroids, viability % test/control
Test: Anticancer human tumor 425362-245-T-J1 cell line growth inhibition;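 note: spheroids exposed to agents for 7 days; 100% = DMSO vehicle control viability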
Conditions: second compound 0.00949 µM; first compound 10 µM; hits give low values; spheroids with HUVEC and MSC
measurement_label: viability, T/C (%)
Answers are plain numbers, in %.

Known viability, T/C results, listed for orientation:
1. CC1COCCN1c1cc(-c2ccnn2C)c2ccnc(-c3ccn[nH]3)c2n1 (stereo not drawn) + CC[C@@]1(O)C(=O)OCc2c1cc1n(c2=O)Cc2cc3c(CN(C)C)c(O)ccc3nc2-1 ... 5.81
2. [2H]c1nc(C)nc([2H])c1-c1cc(NC[C@@H](C)c2cccc3c(C(=O)NC)ccnc23)ncn1 + CC[C@@]1(O)C(=O)OCc2c1cc1n(c2=O)Cc2cc3c(CN(C)C)c(O)ccc3nc2-1 ... 25.5

Entry under test: CC(C)n1c(=O)n(C)c2cnc3cc(F)c(-c4ccc(OCCCN5CCCCC5)nc4)cc3c21 + CC[C@@]1(O)C(=O)OCc2c1cc1n(c2=O)Cc2cc3c(CN(C)C)c(O)ccc3nc2-1 . Its viability, T/C was 2.89

----------
System: 425362-245-T-J1 tumor spheroids, viability % test/control
Assay: Anticancer human tumor 425362-245-T-J1 cell line growth inhibition; active = viability on the fitted dose curve at most 10% of control; inactive = the rest;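 note: spheroids exposed to agents for 7 days; 100% = DMSO vehicle control viability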
Details: second compound 1 µM; first compound 0.3 µM; spheroids with HUVEC and MSC
Your answer must be one of the following: 1 = active, 0 = inactive

What did the test return for CNCc1ccc(-c2cc(-c3nc(-c4ccc(S(=O)(=O)C(C)C)cc4)cnc3N)on2)cc1 + Cn1nnc2c(C(N)=O)ncn2c1=O ?
1

What did the test return for O=C(c1cc(Cc2n[nH]c(=O)c3ccccc23)ccc1F)N1CCN(C(=O)C2CC2)CC1 + Cn1nnc2c(C(N)=O)ncn2c1=O ?
0

What did the test return for Cc1sc2c(c1C)C(c1ccc(Cl)cc1)=NC(CC(=O)Nc1ccc(O)cc1)c1nnc(C)n1-2 (centres undefined) + Cn1nnc2c(C(N)=O)ncn2c1=O ?
1

What did the test return for Cn1ncnc1[C@H]1c2n[nH]c(=O)c3cc(F)cc(c23)N[C@@H]1c1ccc(F)cc1 + Cn1nnc2c(C(N)=O)ncn2c1=O ?
0

----------
Please respond with reported viability, T/C for every item in the list.
Test system: 425362-245-T-J1 tumor spheroids, viability % test/control
Experiment: Anticancer human tumor 425362-245-T-J1 cell line growth inhibition;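 note: spheroids exposed to agents for 7 days; 100% = DMSO vehicle control viability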
Conditions: second compound 30 pM; first compound 3.16 µM; hits give low values; spheroids with HUVEC and MSC
Answers are plain numbers, in %.

1) Cc1cc(C)c(CNC(=O)c2cc(-c3ccc(CN4CCOCC4)cc3)cc3c2cnn3C2CCCC2)c(=O)[nH]1 + COc1cc2c(cc1O)CCNC21CSC2c3c(OC(C)=O)c(C)c4c(c3C(COC1=O)N1C(O)C3Cc5cc(C)c(OC)c(O)c5C(C21)N3C)OCO4 ... 85.7
2) COc1ccc([C@@H](O)c2cc(-c3ncnc4cc(N5CCOCC5)ccc34)c(F)cc2Cl)nn1 + COc1cc2c(cc1O)CCNC21CSC2c3c(OC(C)=O)c(C)c4c(c3C(COC1=O)N1C(O)C3Cc5cc(C)c(OC)c(O)c5C(C21)N3C)OCO4 ... 32.7
3) [2H]c1nc(C)nc([2H])c1-c1cc(NC[C@@H](C)c2cccc3c(C(=O)NC)ccnc23)ncn1 + COc1cc2c(cc1O)CCNC21CSC2c3c(OC(C)=O)c(C)c4c(c3C(COC1=O)N1C(O)C3Cc5cc(C)c(OC)c(O)c5C(C21)N3C)OCO4 ... 90.8
4) COc1cc(C)[nH]c(=O)c1CN1CCc2c(Cl)cc(C(OC)C3COC3)c(Cl)c2C1=O (stereo unspecified) + COc1cc2c(cc1O)CCNC21CSC2c3c(OC(C)=O)c(C)c4c(c3C(COC1=O)N1C(O)C3Cc5cc(C)c(OC)c(O)c5C(C21)N3C)OCO4 ... 86.5
5) CC(C)n1c(=O)n(C)c2cnc3cc(F)c(-c4ccc(OCCCN5CCCCC5)nc4)cc3c21 + COc1cc2c(cc1O)CCNC21CSC2c3c(OC(C)=O)c(C)c4c(c3C(COC1=O)N1C(O)C3Cc5cc(C)c(OC)c(O)c5C(C21)N3C)OCO4 ... 11.2

Entry under test: CC1COCCN1c1cc(-c2ccnn2C)c2ccnc(-c3ccn[nH]3)c2n1 (stereo unspecified) + COc1cc2c(cc1O)CCNC21CSC2c3c(OC(C)=O)c(C)c4c(c3C(COC1=O)N1C(O)C3Cc5cc(C)c(OC)c(O)c5C(C21)N3C)OCO4 . Its viability, T/C was 6.73

----------
Please respond with reported viability, T/C for every item in the list.
System: 425362-245-T-J1 tumor spheroids, viability % test/control
Assay: Anticancer human tumor 425362-245-T-J1 cell line growth inhibition;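 note: spheroids exposed to agents for 7 days; 100% = DMSO vehicle control viability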
Details: second compound 0.000949 µM; first compound 1 µM; hits give low values; spheroids with HUVEC and MSC
Experimental: Multicellular complex tumor spheroid response to DNA repair inhibitors in combination with DNA-damaging drugs This study explores the anticancer activities of DNA-damaging drugs and inhibitors of DNA damage repair, both as single agents and in combinations. […] Twenty-six patient-derived or established malignant cell lines were evaluated representing sarcoma, melanoma, small cell lung cancer (SCLC), non-small cell lung cancer (NSCLC), as well as bladder, ovarian and pancreatic cancers. […]
Numbers only, in %.

1. CC1COCCN1c1cc(-c2ccnn2C)c2ccnc(-c3ccn[nH]3)c2n1 (centres undefined) + COc1cc2c(cc1O)CCNC21CSC2c3c(OC(C)=O)c(C)c4c(c3C(COC1=O)N1C(O)C3Cc5cc(C)c(OC)c(O)c5C(C21)N3C)OCO4 ... 0.08

// input: 2 compounds below; output: viability, T/C for each
1. [2H]c1nc(C)nc([2H])c1-c1cc(NC[C@@H](C)c2cccc3c(C(=O)NC)ccnc23)ncn1 + COc1cc2c(cc1O)CCNC21CSC2c3c(OC(C)=O)c(C)c4c(c3C(COC1=O)N1C(O)C3Cc5cc(C)c(OC)c(O)c5C(C21)N3C)OCO4
2. COc1cc(C)[nH]c(=O)c1CN1CCc2c(Cl)cc(C(OC)C3COC3)c(Cl)c2C1=O (centres undefined) + COc1cc2c(cc1O)CCNC21CSC2c3c(OC(C)=O)c(C)c4c(c3C(COC1=O)N1C(O)C3Cc5cc(C)c(OC)c(O)c5C(C21)N3C)OCO4

1: 0.35; 2: 0.35

Entry under test: CC(C)n1c(=O)n(C)c2cnc3cc(F)c(-c4ccc(OCCCN5CCCCC5)nc4)cc3c21 + COc1cc2c(cc1O)CCNC21CSC2c3c(OC(C)=O)c(C)c4c(c3C(COC1=O)N1C(O)C3Cc5cc(C)c(OC)c(O)c5C(C21)N3C)OCO4 . Its viability, T/C was 0.63

// data source = PubChem BioAssay AID1845198
